Assay: Drug level in C57BL/6 mouse heart at 24 mg/kg, sc after 1 hr by HPLC analysis
Format: ADME, organism-based
Parameters: dose 24 mg/kg, route subcutaneous
Conditions: read-out: Drug uptake
Measured Attribute: concentration at 1 h (ng/g)
Numbers only, in ng/g.

Memo: CCC(NC(=O)[C@H](CC(C)C)NC(=O)OCc1ccccc1)C(=O)C(=O)NCCCN1CCOCC1 (stereo partly specified) , reported concentration at 1 h: 541

----------
Assay: Drug level in C57BL/6 mouse serum at 24 mg/kg, sc after 1 hr by HPLC analysis
Format: ADME, organism-based
Set-up: dose 24 mg/kg, route subcutaneous
Details: read-out: Drug uptake
Measured Attribute: concentration at 1 h (ng/g)
Answers are plain numbers, in ng/g.

Input CCC(NC(=O)[C@H](CC(C)C)NC(=O)OCc1ccccc1)C(=O)C(=O)NCCCN1CCOCC1 (stereo partly specified) . Output concentration at 1 h: 895

----------
Target: Cathepsin B (Homo sapiens)
Measured Attribute: Ki (µM)
Give bare numbers, in µM.

>  <Compound>
CCC(NC(=O)[C@H](CC(C)C)NC(=O)OCc1ccccc1)C(=O)C(=O)NCCCn1cnc2c(N)nc(OC)nc21 (some centres undefined)

>  <Measurement Target>
Cathepsin B (Homo sapiens)

>  <Measured Attribute>
Ki

>  <Endpoint Unit>
µM

>  <Experimental Value>
0.88

$$$$
>  <Compound>
COc1nc(N)c2ncn(CCCNC(=O)C(=O)C(Cc3ccccc3)NC(=O)[C@H](CC(C)C)NC(=O)OCc3ccccc3)c2n1 (some centres undefined)

>  <Measurement Target>
Cathepsin B (Homo sapiens)

>  <Measured Attribute>
Ki

>  <Endpoint Unit>
µM

>  <Experimental Value>
2.34

$$$$
>  <Compound>
CCC(NC(=O)[C@H](CC(C)C)NC(=O)OCc1ccccc1)C(=O)C(=O)NCCCN1CCOCC1 (some centres undefined)

>  <Measurement Target>
Cathepsin B (Homo sapiens)

>  <Measured Attribute>
Ki

>  <Endpoint Unit>
µM

>  <Experimental Value>
6.9

$$$$

API: the following record is the query input.
Measured Ki, CCC(NC(=O)[C@H](CC(C)C)NC(=O)OCc1ccccc1)C(=O)C(=O)NCCCN1CCN(C)CC1 (some centres undefined) : 1.42

----------
Test: Drug level in C57BL/6 mouse brain at 24 mg/kg, sc after 8 hrs by HPLC analysis
Type: ADME, organism-based
Design: dose 24 mg/kg, route subcutaneous
Conditions: read-out: Drug uptake
Measured Attribute: concentration at 8 h (ng/g)
One number for each entry, in ng/g.

In plain terms, CCC(NC(=O)[C@H](CC(C)C)NC(=O)OCc1ccccc1)C(=O)C(=O)NCCCn1cnc2c(N)ncnc21 (stereo partly specified) has a documented concentration at 8 h of 1170

----------
Test: Drug level in C57BL/6 mouse liver at 24 mg/kg, sc after 1 hr by HPLC analysis
Format: ADME, organism-based
Design: dose 24 mg/kg, route subcutaneous
Details: read-out: Drug uptake
Measured Attribute: concentration at 1 h (ng/g)
Give bare numbers, in ng/g.

Just so you know, measured concentration at 1 h for CCC(NC(=O)[C@H](CC(C)C)NC(=O)OCc1ccccc1)C(=O)C(=O)NCCCN1CCOCC1 (stereo partly specified) came out at 1550

----------
Molecular target: Calpain-1 catalytic subunit (Sus scrofa, UniProt P35750)
Sequence (P35750 whole entry): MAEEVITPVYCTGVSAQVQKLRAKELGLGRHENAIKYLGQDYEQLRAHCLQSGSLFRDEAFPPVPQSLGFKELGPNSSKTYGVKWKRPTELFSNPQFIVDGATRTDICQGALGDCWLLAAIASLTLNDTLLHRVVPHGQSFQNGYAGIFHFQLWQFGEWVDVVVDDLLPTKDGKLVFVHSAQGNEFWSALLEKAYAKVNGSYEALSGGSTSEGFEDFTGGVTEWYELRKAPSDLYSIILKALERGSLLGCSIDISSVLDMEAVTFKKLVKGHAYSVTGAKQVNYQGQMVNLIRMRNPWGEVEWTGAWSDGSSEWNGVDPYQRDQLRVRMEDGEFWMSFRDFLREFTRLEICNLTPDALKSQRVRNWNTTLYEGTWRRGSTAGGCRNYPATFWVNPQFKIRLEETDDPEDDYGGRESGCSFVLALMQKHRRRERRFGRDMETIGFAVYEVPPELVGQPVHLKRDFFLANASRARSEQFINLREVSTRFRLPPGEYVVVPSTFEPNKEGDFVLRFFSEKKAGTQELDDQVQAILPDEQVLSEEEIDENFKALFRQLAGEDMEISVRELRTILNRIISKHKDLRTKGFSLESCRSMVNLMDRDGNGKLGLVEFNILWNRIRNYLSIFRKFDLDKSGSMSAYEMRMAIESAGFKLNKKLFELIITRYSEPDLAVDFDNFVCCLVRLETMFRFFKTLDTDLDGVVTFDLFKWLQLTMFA
Test: Inhibition of porcine erythrocyte calpain 1
Assign pKi to each entry below.
Give bare numbers, as −log10 of the molar value.

>  <Molecule>
CCC(NC(=O)[C@H](CC(C)C)NC(=O)OCc1ccccc1)C(=O)C(=O)NCCCN1CCN(C)CC1 (stereo partly drawn)

>  <pKi>
6.19

$$$$
>  <Molecule>
CC(C)C[C@H](NC(=O)OCc1ccccc1)C(=O)NC(Cc1ccccc1)C(=O)C(=O)NCCN(C)C (stereo partly drawn)

>  <pKi>
6.15

$$$$

// assay Calpain-1 catalytic subunit (Sus scrofa, UniProt P35750), entry CC(C)C[C@H](NC(=O)OCc1ccccc1)C(=O)NC(Cc1ccccc1)C(=O)C(=O)NCCCn1cnc2c(N)ncnc21 (stereo partly drawn) , pKi value = 7.26
